- experimental_details: Identification of proteins required for the processing of the EWS-FLI1 nascent transcript;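 note: robust z of luciferase light less the median z of siRNAs with the same seed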
- experimental_setup: TC32 Ewing sarcoma NR0B1-luc vs CMV-luc, 48 h; screened at 20 nM (by protocol)
Whole data set: some 59,000 sequences, median the read-out near -0.00055, cut for the lowest 2% near -2. The entries come from a sample that favours the lowest values as a whole.

[
  {
    "ordered_residues": "UUUGGCAAGACUUAACUUG against SCGB1D2",
    "seed-corrected z-score": 0.678
  },
  {
    "ordered_residues": "AUCGCUGUAGCACUUGUGC against PKP3",
    "seed-corrected z-score": -0.54
  },
  {
    "ordered_residues": "UGUUUAGUAGCAGAUCUCC against PSMD6",
    "seed-corrected z-score": -2.83
  },
  {
    "ordered_residues": "UCACGUUUAUUCUGAAUCC against NDC1",
    "seed-corrected z-score": -1.1
  },
  {
    "ordered_residues": "AAGGUGUUCACGUAGGCUG against CLN3",
    "seed-corrected z-score": -2.78
  },
  {
    "ordered_residues": "UGAAGUACACCUUAAAGCC against SCN4A",
    "seed-corrected z-score": 0.557
  },
  {
    "ordered_residues": "UUUAGUAACAGCCCAGUUC against CCDC36",
    "seed-corrected z-score": -0.277
  }
]

* * *

- experimental_details: Identification of proteins required for the processing of the EWS-FLI1 nascent transcript;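 note: robust z of luciferase light less the median z of siRNAs with the same seed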
- experimental_setup: TC32 Ewing sarcoma NR0B1-luc vs CMV-luc, 48 h; screened at 20 nM (by protocol)
In all, about 59,000 sequences were measured (the read-out: median about -0.00055, lowest 2% from about -2 on). Many of the other results were omitted from the sample, so the lowest values are more common in it than they were.
# Lookup of reported seed-corrected z-score keyed by entry

[
  {
    "ordered_residues": "UUUGUUGAAGGUUUCACUG against ZMYND15",
    "seed-corrected z-score": 1.4
  },
  {
    "ordered_residues": "UUAGCAUUAAAACAGGUAG against GC",
    "seed-corrected z-score": -0.347
  },
  {
    "ordered_residues": "UUCUUUACAGCAUGAGGGC against CCL25",
    "seed-corrected z-score": 0.424
  },
  {
    "ordered_residues": "AUGAUGCUAGGGUCGGUGC against E2F2",
    "seed-corrected z-score": -0.689
  },
  {
    "ordered_residues": "UUCAGGACGAUCUUGACAG against CHRDL2",
    "seed-corrected z-score": -0.237
  },
  {
    "ordered_residues": "UCCUUUGAUAGCCUCUUCG against ELAVL3",
    "seed-corrected z-score": -0.214
  },
  {
    "ordered_residues": "UGCAGUUUGACGGUGCCUC against TMEM204",
    "seed-corrected z-score": -0.467
  },
  {
    "ordered_residues": "UAUAAGUAAGCCUAGCUUG against C16orf54",
    "seed-corrected z-score": 0.684
  },
  {
    "ordered_residues": "ACUGGAGAUAGUGCUGUUG against SUN2",
    "seed-corrected z-score": -4.61
  },
  {
    "ordered_residues": "UAUUUCACCAUCUCCGAGC against MAGEF1",
    "seed-corrected z-score": -2.32
  },
  {
    "ordered_residues": "UCUGUCUUCCCAUAGGAUG against LOC440040",
    "seed-corrected z-score": -2.05
  },
  {
    "ordered_residues": "UCAGUAAUCAGCUUGAAUU against RPS3A",
    "seed-corrected z-score": 2.45
  },
  {
    "ordered_residues": "AAUAGGAUAAAUGUUCCGG against SMURF2",
    "seed-corrected z-score": 0.293
  },
  {
    "ordered_residues": "UAUCCAUUUUCCUCUAUCC against FGF10",
    "seed-corrected z-score": -0.261
  },
  {
    "ordered_residues": "UGUAGUCACACCAGAGAGG against FAM180B",
    "seed-corrected z-score": -2.49
  },
  {
    "ordered_residues": "UUCUGACCAAGCAAACUCG against SF3B1",
    "seed-corrected z-score": -2.7
  },
  {
    "ordered_residues": "AUACUGGACACUCUUGCCG against RNF5",
    "seed-corrected z-score": -2.86
  },
  {
    "ordered_residues": "UCUCAGGACUUAUAGCUGG against CEACAM3",
    "seed-corrected z-score": 0.106
  },
  {
    "ordered_residues": "UAGGUCAGAAGCAACCUGC against C10orf111",
    "seed-corrected z-score": 2.42
  },
  {
    "ordered_residues": "UAUUCAGCAUUCUCUAUCU against DDAH2",
    "seed-corrected z-score": -0.379
  },
  {
    "ordered_residues": "UUCGAAGCAUCUUUUGGGC against RPL7P9",
    "seed-corrected z-score": -2.28
  },
  {
    "ordered_residues": "UAUUCCCUAAUAAAGCAGG against ZMYM5",
    "seed-corrected z-score": 0.289
  },
  {
    "ordered_residues": "UAUCUUCACUGGGUUCAUG against IRF6",
    "seed-corrected z-score": 2.07
  },
  {
    "ordered_residues": "UACCUGAAAACCUAGUUUC against TBPL1",
    "seed-corrected z-score": -0.106
  },
  {
    "ordered_residues": "AAGGUGUUUCGAGUUAUGC against POLR2J",
    "seed-corrected z-score": -0.205
  },
  {
    "ordered_residues": "UUCAGCAUUUGAUUCAAUC against HTRA4",
    "seed-corrected z-score": -0.127
  }
]

* * *

- experimental_details: Identification of proteins required for the processing of the EWS-FLI1 nascent transcript;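 note: robust z of luciferase light less the median z of siRNAs with the same seed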
- experimental_setup: TC32 Ewing sarcoma NR0B1-luc vs CMV-luc, 48 h; screened at 20 nM (by protocol)
Over roughly 59,000 sequences, the read-out has its median near -0.00055; the lowest 2% begin near -2. This excerpt belongs to a sample that is enriched for the lowest values.
sequences and their reported seed-corrected z-score
metric_name: seed-corrected z-score

[
  {
    "ordered_residues": "UAUCGGAAAGAUAGCCUGG against PTPN3",
    "value": 0.486
  },
  {
    "ordered_residues": "UCCUGCUUUAUAACUAGCC against ZNF621",
    "value": -4.33
  },
  {
    "ordered_residues": "UUGUUGAAAUGGAACUCCU against HOXB1",
    "value": 0.384
  },
  {
    "ordered_residues": "UCAGUGGAAGGAAUCCUCA against OR13C8",
    "value": 1.06
  },
  {
    "ordered_residues": "UCAUGUACACUGCUAAUUC against SLC30A10",
    "value": 0.696
  },
  {
    "ordered_residues": "UCCGUGCACAUCUUAUAGG against HMG20B",
    "value": 0.0817
  }
]

* * *

- experimental_details: Identification of proteins required for the processing of the EWS-FLI1 nascent transcript;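 note: robust z of luciferase light less the median z of siRNAs with the same seed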
- experimental_setup: TC32 Ewing sarcoma NR0B1-luc vs CMV-luc (EWS-FLI1 target promoter against control promoter), 48 h; screened at 20 nM (by protocol)
Whole data set: some 59,000 sequences, median the read-out near -0.00055, cut for the lowest 2% near -2. Shown is part of a subset that was picked to be rich in the lowest values.
Please assign label 0 whenever seed-corrected z-score is at or above -0.05, and label 1 whenever it is below.

[
  {
    "ordered_residues": "AAGUGGUCAAAAUCCGCUC against LOC728613",
    "class_label": "label 1"
  },
  {
    "ordered_residues": "UUUGAUAUUCAUAACGAUC against N4BP2L2",
    "class_label": "label 0"
  },
  {
    "ordered_residues": "UGAUAUAUAAGGCCCGGAC against RPL10A",
    "class_label": "label 1"
  },
  {
    "ordered_residues": "AAAGCGAGCACUGCGGAUC against CCDC102A",
    "class_label": "label 1"
  },
  {
    "ordered_residues": "UCUGUAAACAGCUUGAUGA against GLP1R",
    "class_label": "label 1"
  },
  {
    "ordered_residues": "UCCUGCUUCCGGAAUAUCU against PNMA2",
    "class_label": "label 1"
  },
  {
    "ordered_residues": "UAAGGUAAGAGCCUGUGCU against ZNF177",
    "class_label": "label 0"
  },
  {
    "ordered_residues": "AAGGUAACCAGCUCGAUGG against RPL7AP27",
    "class_label": "label 1"
  },
  {
    "ordered_residues": "UUUUGGGCCUCUGAACUCC against LCE1B",
    "class_label": "label 0"
  },
  {
    "ordered_residues": "UACGGUUCUUCCUGGUUGG against C1QA",
    "class_label": "label 0"
  },
  {
    "ordered_residues": "UCUGCUGUCCUGUAAGUCG against AMACR",
    "class_label": "label 0"
  },
  {
    "ordered_residues": "UGACGUACCUAUCCACUGC against MC5R",
    "class_label": "label 1"
  },
  {
    "ordered_residues": "UAACCUGCUCAAAAGAAUG against ACSL6",
    "class_label": "label 0"
  },
  {
    "ordered_residues": "UUGGAAUCAGUCAUGCUCA against SFTPD",
    "class_label": "label 0"
  },
  {
    "ordered_residues": "AAAGGUCCCAGAGUACAUG against SLC25A20",
    "class_label": "label 0"
  },
  {
    "ordered_residues": "UCCUUGGUCACUGUCGCUC against KLF7",
    "class_label": "label 1"
  },
  {
    "ordered_residues": "UUGUUGUAAAGCACGAUGU against CHRNB4",
    "class_label": "label 1"
  },
  {
    "ordered_residues": "AAAGUCAUCAGCAAUUUGG against OR10G8",
    "class_label": "label 1"
  },
  {
    "ordered_residues": "AAAGGAAAAACCUAUUUUC against LOC728254",
    "class_label": "label 0"
  },
  {
    "ordered_residues": "AUGGUAGUAAUCGCGGGCG against HSPA12B",
    "class_label": "label 1"
  },
  {
    "ordered_residues": "UAUAGGUAAGGAUUUCUGC against KRTAP9-2",
    "class_label": "label 1"
  },
  {
    "ordered_residues": "UUUCAUUCGGUGAAAGUCC against MTFR1L",
    "class_label": "label 1"
  },
  {
    "ordered_residues": "UGCGGAUCAAGUCUGAGAC against MSH5",
    "class_label": "label 1"
  },
  {
    "ordered_residues": "ACAGUGGUGAACGUGAUGC against JPX",
    "class_label": "label 1"
  },
  {
    "ordered_residues": "UUCUUAACAUAGGGCAUGG against RRM2B",
    "class_label": "label 1"
  }
]
